Assignment: determine reported chromatographic logP for the given compounds.
assay: logP by HPLC (EEC Directive 79/831 Annex V. A8, gradient method); type: physicochemical; details: Table 3, intermediates of formula (II-a)
Please give only the number in your answer, with no unit.

Ask: State the recorded chromatographic logP for this entry: CC1(c2ccccc2)CS(=O)(=O)N=C(Cl)S1 (centres unmarked) [II-a-2]
Reply: 2.75

Ask: # input compound: O=S1(=O)CC(c2ccccc2)SC(Cl)=N1 (centres unmarked) [II-a-1] ; wanted: its chromatographic logP
Reply: 2.63

====

assay: logP by HPLC (EEC Directive 79/831 Annex V. A8, gradient method); type: physicochemical; conditions: HPLC, gradient method, acetonitrile/0.1% aqueous phosphoric acid; Table 1
I'd be grateful if you could share measured logP for these entries.
Would you mind answering with just the numeric figure?

Ask: Could you tell me which logP is on file for CN(C)N=Cc1ccc(OC2=NS(=O)(=O)CS2)cc1 [Example 61] ?
Reply: 2.16

Ask: Find the recorded logP belonging to COC=C(C(=O)OC)c1ccccc1OC1=NS(=O)(=O)CS1 [Example 5] and report it.
Reply: 2.03

Ask: Give the measured logP of O=S1(=O)CSC(Oc2ccc(OC(F)(F)F)cc2)=N1 [Example 124] .
Reply: 2.79

Ask: Given O=S1(=O)CSC(Oc2ccc(N=Nc3ccccc3)cc2)=N1 [Example 47] , state its recorded logP.
Reply: 3.47

Ask: So what does the record say about logP for COC(=O)C(=NOCC#N)c1ccccc1OC1=NS(=O)(=O)CS1 [Example 7] ?
Reply: 1.7

Ask: # lookup: logP of CON=C(C(=O)NCc1ccccc1)c1ccccc1OC1=NS(=O)(=O)CS1 [Example 9]
Reply: 2.13

Ask: Item under review: CSc1ccc(OC2=NS(=O)(=O)CS2)cc1C [Example 54] . Reported logP?
Reply: 2.75

Ask: Would you mind telling me what logP value was observed for CON=C(C(=O)NOCc1ccccc1)c1ccccc1OC1=NS(=O)(=O)CS1 [Example 10] ?
Reply: 2.18

Ask: Requested field: logP. Item: CC(=NOCc1ccccc1)c1ccc(OC2=NS(=O)(=O)CS2)c(C)c1 [Example 18]
Reply: 3.92

====

assay: logP by HPLC (EEC Directive 79/831 Annex V. A8, gradient method); assay type: physicochemical; conditions: Table 2
Binary label based on chromatographic logP with cut-off 2: below gives Fulfilled, not below gives Not fulfilled.

Ask: State whether 2 exceeds chromatographic logP recorded for O=S1(=O)CSC(Oc2ccc3oc(=S)sc3c2)=N1 .
Reply: Not fulfilled

Ask: is_below(chromatographic logP, 2) for O=S1(=O)CSC(Oc2ccc3c(c2)CCC3)=N1 ?
Reply: Not fulfilled

Ask: Field: below-cutoff. Rule: recorded chromatographic logP strictly less than 2. Subject: O=S1(=O)CSC(Oc2ccc3c(c2)OCO3)=N1
Reply: Fulfilled

Ask: Field: below-cutoff. Rule: recorded chromatographic logP strictly less than 2. Subject: O=S1(=O)CSC(Oc2ccc3c(c2)Nc2ccccc2S3(=O)=O)=N1
Reply: Fulfilled

Ask: Could you please tell me whether chromatographic logP recorded for Cc1nc2cc(OC3=NS(=O)(=O)CS3)ccc2s1 is less than 2?
Reply: Fulfilled

Ask: Does the reported chromatographic logP of the following molecule sit strictly below 2? CN1C(=O)Nc2cc(OC3=NS(=O)(=O)CS3)ccc2SC1=O
Reply: Fulfilled

Ask: Strictly below 2 in chromatographic logP? O=S1(=O)CSC(Oc2ccc3[nH]ccc3c2)=N1
Reply: Fulfilled

Ask: I'd appreciate it if you could check whether Cc1c(C(=O)O)c2cc(OC3=NS(=O)(=O)CS3)ccc2n1C has chromatographic logP smaller than 2.
Reply: Not fulfilled

Ask: Lab log: compare recorded chromatographic logP with 2; is it strictly lower for O=c1c2ccccc2oc2cc(OC3=NS(=O)(=O)CS3)ccc12 ?
Reply: Not fulfilled

Ask: Please check: chromatographic logP for O=C1Cc2cc(OC3=NS(=O)(=O)CS3)ccc2O1 , strictly under 2 or not?
Reply: Fulfilled

Ask: I'd appreciate it if you could check whether O=S1(=O)CSC(Oc2cccc3sc4ccccc4c23)=N1 has chromatographic logP smaller than 2.
Reply: Not fulfilled
